Quick reference for EC50 among some binders
Target: T1, human 5T4 oncofoetal antigen (human, UniProt Q13641 32-420)
T1 construct: whole, on cells; also called hu 5T4; human 5T4 antigen
T1 sequence (looked up): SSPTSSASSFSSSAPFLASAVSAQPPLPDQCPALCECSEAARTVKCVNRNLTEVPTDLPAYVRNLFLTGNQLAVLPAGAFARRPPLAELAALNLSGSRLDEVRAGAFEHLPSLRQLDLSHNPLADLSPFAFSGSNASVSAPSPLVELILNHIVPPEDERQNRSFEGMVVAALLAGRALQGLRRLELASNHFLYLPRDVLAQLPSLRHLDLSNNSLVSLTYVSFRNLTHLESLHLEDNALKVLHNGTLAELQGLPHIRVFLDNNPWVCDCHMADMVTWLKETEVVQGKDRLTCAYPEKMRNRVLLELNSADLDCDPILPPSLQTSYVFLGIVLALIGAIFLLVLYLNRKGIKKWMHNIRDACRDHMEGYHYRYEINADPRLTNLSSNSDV
Assay: flow cytometry, CHOZN cells expressing hu 5T4

Binder	EC50, µg/mL
humanized anti-5T4 antibody 825a with HC-41C mutation (antibody, human IgG1, kappa, V domains shown) VH: EVQLVESGGDLAQPGGSLRLSCAVSGIDLSSYGMGWVRQACGKGLEWVSIISRNSVTYYATWAKGRFTISRDNSKNTVYLQMTSLRAEDTALYFCARRATYSGALGYFDIWGQGTLVTVSS VL: EIVMTQSPSSLSASVGDRVTITCQASENIYSTLAWYQQKPGKAPKLLIYDAFDLASGVPSRFSGSGSGTDYTLTISSLQPEDFATYYCQQGYSGTNVDNAFGQGTKLEIKR	0.15
humanized anti-5T4 antibody 825b with HC-41C mutation (antibody, human IgG1, kappa, V domains shown) VH: EVQLEESGGGLVKPGGSLRLSCAASGIDLSSYGMGWVRQACGKGLEWVSIISRNSVTYYATWAKGRFTISRDNSKNTLYLQMNSLRAEDTAVYYCARRATYSGALGYFDIWGRGTLVTVSS VL: EIVMTQSPSSLSASVGDRVTITCQASENIYSTLAWYQQKPGKAPKLLIYDAFDLASGVPSRFSGSGSGTDYTLTISSLQPEDFATYYCQQGYSGTNVDNAFGQGTKLEIKR	0.16
humanized anti-5T4 antibody 789b with HC-41C mutation (antibody, V domains shown) VH: EVQLLESGGSLVLPGGSLRLSCAASGFSLSSYWMSWVRQACGKGLEWVSIIAGRGSTYYASWAKGRFTISRDNSKNTLYMQMNSLRAEDTALYFCARVSSIYYTFNLWGQGTLVTVSS VL: EIVLTQSPSSLSASVGDRVTITCQSSQSVYSNNELSWYQQKPGKAPKLLIYYASTLASGVPSRFSGSGSGTDFTLTISSLQPEDFATYYCQGSYYSGSGWYYAFGQGTKLEIKR	0.15
humanized anti-5T4 antibody 833c with HC-41C mutation (antibody, human IgG1, kappa, V domains shown) VH: EVQLEESGGGLVKPGGSLRLSCAASGIDLSHYVVGWVRQACGKGLEWVSIIYGSGRTYYANWAKGRFTISRDNSKNTLYLQMNSLRAEDTAVYYCARDASVSVYYWGYFDLWGRGTLVTVSS VL: DIQMTQSPSTLSASVGDRVTITCQASQSIGSELAWYQQKPGKAPKLLIYRASTLESGVPSRFSGSGSGTEFTLTISSLQPDDFATYYCQQGYTYSEIDNAFGQGTKVEIKR	0.18
chimeric anti-5T4 antibody 899 with HC-41C mutation (antibody, human IgG1, V domains shown, Human IgG1 constant parts; also called chimeric 899; 899 chimeric) VH: QSVEESGGRLVTPGTPLTLTCTVSGFSLSSYTMSWVRQACGKGLEYIGIISSSDGTWYANWVKGRFTISKTSTTVDLKMTSLTTEDTATYFCARDGTGNKYYTWDRLDLWGQGTLVTVSS VL: NIVMTQTPSPVSGAVGGTVTINCQASQSIYNELSWYQQKPGQPPKLLIYYASTLASGVSSRFKGSGSGTQFTLTISGVESVDAATYYCQQGYSSSNVDNVFGGGTEVVVK	0.14

Measured values drawn from patent US20210317231A1 for this set.
